Data provenance is PubChem BioAssay (NCI).

# Tested on: SK-MEL-28 melanoma
# assay.procedure: NCI tumour cell line growth inhibition, 48 h
reported.metric: TGI (µM)

• Cc1cc2c3c([n+](C)c4ccc(F)cc4c3c1)-c1cc(F)ccc1N2C = 34.9
• CC1=NN(c2cccc(Cl)c2)C(=O)/C1=C\C=C\c1ccccc1 = 4.3
• Clc1ccc(C(Cc2ccccc2)c2c(Cl)nc(N3CCNCC3)nc2Cl)cc1 (stereo not given) = 26.6
• COC(=O)c1c2c(c(C)[n+]([O-])c1C)C(=O)C(NCc1ccc(F)cc1)=CC2=O = 15.6

----------
# Tested on: RPMI-8226 leukemia
# assay.procedure: NCI tumour cell line growth inhibition, 48 h
reported.metric: GI50

• CCCCSc1nc(N)c2cn[nH]c2n1 = 17.1 µM
• O=C1c2ccn(CCCNC(CO)(CO)CO)c2C(=O)c2c1c(O)c1ccccc1c2O = 22.3 µM
• CC(C)(O)CCc1cccc(C(=O)c2cnn(-c3ccc(F)cc3)c2N)c1 = > 25 µM
• Cc1cc(-c2nc3n(c2/C=N/N=C(N)N)CCS3)c(C)s1 = 14 µM
• C[C@@]1(C(=O)O)CCC[C@]2(C)C1CC[C@]13C[C@@](O)(CO)[C@](O)(CC[C@]12O)C3 (stereo not given in full) = > 100 µM
• CNCC(=O)NC(CO)C(=O)NC(CO)C(=O)NC1C(C(N)=O)OC(n2ccc(N)nc2=O)C(O)C1O (stereo not given) = > 50 µg/mL
• CC(=O)CCc1ccc(Oc2c3c(nc4ccccc24)OCC3)cc1 = 67.7 µM
• Cc1nc2sc(C(=O)Nc3ccccc3)c(N)c2cc1C(O)c1ccccc1 (stereo not given) = 0.417 µM
• Cc1nn(Cc2ccccc2)cc1C(=O)Nc1sc2c(c1C(N)=O)CCC(=O)C2 = 1.18 µM
• Cc1ccnc2c(NC(C)CCCN)cc(O)c(O)c12 (stereo not given) = 11 µM
